Measured normalized growth by item
# assay: chemical genetic growth profiling, strain panel (AID 1159580);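 further: tested at 20 µM; growth read once vehicle control cultures reached saturation at 30 °C; 1 = growth at the plate median or of vehicle wells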
# condition notes: S. cerevisiae deletion strains, growth OD, locus YPR163C, strain tif3, stronger effect = lower value
Among all 5,500 compounds or so, about 2,000 (36%) were called active. Another 18% or so got no clear call; they are omitted. The list shows a part of the results.
Please reply with the number alone, leaving off any unit.

See these solved cases before continuing.
molecule: COC(=O)Nc1nc2ccc(C(=O)c3ccccc3)cc2[nH]1
quantity measured: normalized growth
measured: 0.799
--
molecule: O=c1oc2cc(O)ccc2s1
quantity measured: normalized growth
measured: 0.965
--
molecule: N[C@H](C(=O)O)[C@@H]1CC(Cl)=NO1
quantity measured: normalized growth
measured: 0.307
--
molecule: C[C@]12CCC(=O)C=C1CCC1C2[C@@H](O)C[C@@]2(C)C1CC[C@]2(O)C(=O)CO (stereo partly drawn)
quantity measured: normalized growth
measured: 0.986
--
molecule: C[C@@H]1CC[C@H]2[C@@H](C)C(O)O[C@@H]3O[C@@]4(C)CC[C@@H]1[C@]32OO4 (stereo partly drawn)
quantity measured: normalized growth
measured: 0.314

Form: molecule = CCCCCCCCCCCC[C@H](C(=O)O)[C@@H](C)C(=O)O ; normalized growth = 1.02

Form: molecule = COc1cccc(OC)c1OCCNCC1COc2ccccc2O1 (stereo not drawn) ; normalized growth = 0.985

Form: molecule = C[C@@H]1C(=O)O[C@H]2[C@H]1CC[C@@]1(C)C=CC(=O)[C@@]3(C)O[C@@]213 ; normalized growth = 1.02

Form: molecule = C[C@@H]1CC[C@H]2[C@@H](C)C(=O)O[C@@H]3O[C@@]4(C)CC[C@@H]1[C@]32OO4 ; normalized growth = 0.958

Form: molecule = Cc1cc(O)ccc1Cl ; normalized growth = 1

Form: molecule = CCC(C)C(=O)O[C@H]1[C@H](O)C2C(CN3CC(C)CCC3[C@@]2(C)O)C2C[C@]34O[C@]5(O)C(OC(=O)C(C)(O)CC)CC[C@@]3(C)C5C(OC(C)=O)[C@@H](OC(C)=O)C4[C@@]21O (stereo partly drawn) ; normalized growth = 0.99

Form: molecule = CCOC(=O)OC(C)OC(=O)C1N2C(=O)C(NC(=O)[C@H](N)c3ccccc3)C2SC1(C)C (stereo partly drawn) ; normalized growth = 0.984

Form: molecule = CC(=O)NCc1c(I)c(NC(C)=O)c(I)c(C(=O)O)c1I ; normalized growth = 1

Form: molecule = Cc1ccc(S(=O)(=O)NC(=O)NN2CC3CCCC3C2)cc1 (stereo not drawn) ; normalized growth = 1.02

Form: molecule = N#CC(O[C@@H]1O[C@H](CO[C@@H]2O[C@H](CO)[C@@H](O)[C@H](O)[C@H]2O)[C@@H](O)[C@H](O)[C@H]1O)c1ccccc1 (stereo partly drawn) ; normalized growth = 0.992

Form: molecule = CC1C(=O)OC2C1CCC1(C)C=CC(=O)C3(C)OC213 (stereo not drawn) ; normalized growth = 1.01

Form: molecule = Cc1cc(O)cc(C)c1Cl ; normalized growth = 1.01

Form: molecule = C#C[C@]1(O)CCC2C3CCC4=CC(=O)CC[C@@H]4C3CC[C@@]21C (stereo partly drawn) ; normalized growth = 0.986

----------
# assay: chemical genetic growth profiling, strain panel (AID 1159580);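 further: tested at 20 µM; growth read once vehicle control cultures reached saturation at 30 °C; 1 = growth at the plate median or of vehicle wells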
# condition notes: S. cerevisiae deletion strains, growth OD, locus YML070W, strain DAK1
The campaign covered roughly 5,500 compounds. About 2,000 (36%) were called active. Not shown: some 18% with an inconclusive outcome. No stated cut-off is given here; in the data, active means normalized growth mostly below about 0.91 (no sharp cut-off); inconclusive means no clear call, values can overlap the other calls; inactive means mostly above about 0.92. The list shows a part of the results.
Write down the outcome that applies. Available outcomes: active, inactive

Sample answers from the record:
molecule: N#Cc1c2ccccc2nc2ccccc12
assigned category: inactive
//
molecule: Cc1ccc(S(=O)(=O)n2c(Sc3ccc([N+](=O)[O-])cc3[N+](=O)[O-])nc3cc(C)ccc32)cc1
assigned category: inactive
//
molecule: O=C(Nc1ccccc1Sc1ccc([N+](=O)[O-])cc1[N+](=O)[O-])C(Cl)(Cl)Cl
assigned category: inactive
//
molecule: S=C(Nc1ccc(Cl)cc1)SCc1c(Cl)cccc1Cl
assigned category: inactive
//
molecule: O=C(Nc1ccc(Cl)cc1)SCc1c(Cl)cccc1Cl
assigned category: inactive

Please indicate how the test categorized COc1ccc2nc3ccccc3c(N)c2c1 .
active

Please indicate how the test categorized Brc1ccc2[nH]c3c(c2c1)CCC3 .
active

Please indicate how the test categorized Clc1ccc2c(c1)c1ccccc1n2CN1CCOCC1 .
inactive

Please indicate how the test categorized COc1cccc(NC(=S)NC2CC(C)CC(C)(C)C2)c1 (stereo unspecified) .
inactive

Please indicate how the test categorized O=C(CSCc1csc2ccccc12)Nc1ccc(F)c(Cl)c1 .
inactive

Please indicate how the test categorized Fc1cccc(Cl)c1CSc1n[nH]c(-c2cc(C(F)(F)F)cc(C(F)(F)F)c2)n1 .
inactive

----------
Measured normalized growth by item
# assay: chemical genetic growth profiling, strain panel (AID 1159580);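 further: tested at 20 µM; growth read once vehicle control cultures reached saturation at 30 °C; 1 = growth at the plate median or of vehicle wells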
# condition notes: S. cerevisiae deletion strains, growth OD, locus YML016C, strain PPZ1, stronger effect = lower value
Out of some 5,500 compounds screened, about 2,000 (36%) were called active. Another 18% or so got no clear call; they are omitted. The list shows a part of the results.
Please reply with the number alone, leaving off any unit.

compound: CCOP(=S)(OCC)Oc1nc(Cl)c(Cl)cc1Cl
normalized growth: 1

Form: compound = Cc1ccnc(NS(=O)(=O)c2ccc(N)cc2)n1 ; normalized growth = 1.01

Form: compound = CC1(C)CC[C@]2(C(=O)O)CC[C@]3(C)C(=CCC4[C@@]5(C)CC[C@H](O)[C@@](C)(CO)C5CC[C@]43C)C2C1 (some centres undefined) ; normalized growth = 1.01

Form: compound = COc1ccc2[nH]cc(CCN)c2c1 ; normalized growth = 0.984

Form: compound = Nc1ccc(S(=O)(=O)Nc2cnc3ccccc3n2)cc1 ; normalized growth = 0.996

----------
# assay: chemical genetic growth profiling, strain panel (AID 1159580);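 further: tested at 20 µM; growth read once vehicle control cultures reached saturation at 30 °C; 1 = growth at the plate median or of vehicle wells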
# condition notes: S. cerevisiae deletion strains, growth OD, locus YJL092W, strain hpr5, stronger effect = lower value
The whole screen tested about 5,500 compounds, of which about 2,000 (36%) were called active. Not shown: some 18% with an inconclusive outcome. This is one part of the list. Where a SMILES comes first, the peptide text is derived from it. Bridges are numbered along the chain shown (N, C = ends). [ ]: non-standard residue; d: D form. The star is where a group is joined. ξ: configuration not given here. ξDab(CH2SO3H) = NC(CCNCS(=O)(=O)O)C(=O)O; Heptanoyl(6-Me) = CC(C)CCCCC(=O)*; Dab = NCC[CH](N)C(=O)O
Measured normalized growth by item
Please reply with the number alone, leaving off any unit.

See these solved cases before continuing.
compound: C/C=C(/C)C(=O)O[C@@H]1[C@H](OC(C)=O)[C@@]2(CO)C(CC1(C)C)C1=CCC3[C@@]4(C)CC[C@H](O[C@@H]5O[C@H](C(=O)O)[C@@H](O[C@@H]6O[C@H](CO)[C@@H](O)[C@H](O)[C@H]6O)[C@H](O)[C@H]5O[C@@H]5O[C@H](CO)[C@@H](O)[C@H](O)[C@H]5O)[C@](C)(CO)C4CC[C@@]3(C)[C@]1(C)C[C@H]2O (some centres not stated)
normalized growth: 0.989
//
compound: CC(CC(=O)C1OC1(C)C)C1C(=O)CC2(C)C3=CCC4C(C)(C)C(OC5OCC(O)C(O)C5O)CCC45CC35C(O)CC12C (configuration not stated)
normalized growth: 1.02
//
compound: Nc1c2c(nc3ccccc13)CCCC2
normalized growth: 0.983
//
compound: COC(=O)Nc1nc2ccc(C(=O)c3ccccc3)cc2[nH]1
normalized growth: 0.965
//
compound: O=c1[nH]cc(F)c(=O)[nH]1
normalized growth: 0.476

Form: compound = Cc1ccc(-c2cc(C(F)(F)F)nn2-c2ccc(S(N)(=O)=O)cc2)cc1 ; normalized growth = 1.02

Form: compound = N=C(N)SCCN ; normalized growth = 0.998

Form: compound = CCC(C)C1NC(=O)C(CCNCS(=O)(=O)O)NC(=O)C(NC(=O)C(CCNCS(=O)(=O)O)NC(=O)C(NC(=O)C(CCNCS(=O)(=O)O)NC(=O)CCCCC(C)C)C(C)O)CCNC(=O)C(C(C)O)NC(=O)C(CCNCS(=O)(=O)O)NC(=O)C(CCNCS(=O)(=O)O)NC(=O)C(C(C)CC)NC1=O (configuration not stated) ({Heptanoyl(6-Me)}-[ξDab(CH2SO3H)]T[ξDab(CH2SO3H)][Dab][ξDab(CH2SO3H)]II[ξDab(CH2SO3H)][ξDab(CH2SO3H)]T; lactam 4-C; configuration not given here) ; normalized growth = 0.987

Form: compound = CNCc1ccccc1 ; normalized growth = 1.02

Form: compound = O=C1c2c(O)cccc2Cc2cccc(O)c21 ; normalized growth = 1.01

Form: compound = CCC(C)C(=O)O[C@H]1[C@H](O)C2C(CN3CC(C)CCC3[C@@]2(C)O)C2C[C@]34O[C@]5(O)C(OC(=O)C(C)(O)CC)CC[C@@]3(C)C5C(OC(C)=O)[C@@H](OC(C)=O)C4[C@@]21O (some centres not stated) ; normalized growth = 1.02

Form: compound = CC1(C)CC[C@]2(C(=O)O)CC[C@]3(C)C(=CCC4[C@@]5(C)CC[C@@H](O)C(C)(C)C5CC[C@]43C)C2C1 (some centres not stated) ; normalized growth = 1.02

Form: compound = CC1(C)CC[C@@]2(C(=O)O)C(C1)C1=CCC3[C@@]4(C)CC[C@H](O)C(C)(C)C4CC[C@@]3(C)[C@]1(C)C[C@@H]2O (some centres not stated) ; normalized growth = 1.01

Form: compound = CC(C)=CCCC1(C)C=Cc2c(O)c3c(c(CC=C(C)C)c2O1)OC12C(=CC4CC1C(C)(C)OC2(C/C=C(/C)C(=O)O)C4=O)C3=O (configuration not stated) ; normalized growth = 0.946

Form: compound = CCOc1ccc2nc3cc(N)ccc3c(N)c2c1 ; normalized growth = 0.803

Form: compound = CCCOc1ccccc1-c1nc2n[nH]nc2c(=O)[nH]1 ; normalized growth = 1

Form: compound = CCCCCCCCCCCC[C@H](C(=O)O)[C@@H](C)C(=O)O ; normalized growth = 0.967

Form: compound = COc1cccc2c1C(=O)c1c(O)c3c(c(O)c1C2=O)C[C@@](O)(C(=O)CO)C[C@@H]3OC1C[C@H](N)[C@H](O)[C@H](C)O1 (some centres not stated) ; normalized growth = 0.691

Form: compound = CC(C)CC(N(C)C)C1(c2ccc(Cl)cc2)CCC1 (configuration not stated) ; normalized growth = 1

Form: compound = O=C(Nc1ccc(C(=O)O)c(O)c1)c1ccccc1 ; normalized growth = 0.999

Form: compound = COC(=O)Nc1nc2ccc(S(=O)c3ccccc3)cc2[nH]1 (configuration not stated) ; normalized growth = 0.984

Form: compound = COC(=O)Nc1nc2ccc(Sc3ccccc3)cc2[nH]1 ; normalized growth = 1

Form: compound = COc1cc(C(=O)O[C@H]2CC[C@@]3(C)[C@@H]4CC[C@H]5[C@]6(O)C[C@H](O)[C@@]7(O)[C@@H](CN8C[C@@H](C)CC[C@H]8[C@@]7(C)O)[C@]6(O)C[C@@]53O[C@]24O)cc(OC)c1OC ; normalized growth = 1.02

Form: compound = Cc1cn([C@H]2C[C@H](N=[N+]=[N-])[C@@H](CO)O2)c(=O)[nH]c1=O ; normalized growth = 1.01

Form: compound = CC1(C)CC[C@]2(C)CC[C@]3(C)C(=CCC4[C@@]5(C)CC[C@H](O)C(C)(C)C5CC[C@]43C)C2C1 (some centres not stated) ; normalized growth = 1.01

Form: compound = NNc1nncc2ccccc12 ; normalized growth = 0.988

Form: compound = C/C=C(/C)C(=O)OC1CCC2(C)C3CCC4C5(O)CC(O)C6(O)C(CN7CC(C)CCC7C6(C)O)C5(O)CC42OC13O (configuration not stated) ; normalized growth = 1

These entries and their values trace back to PubChem BioAssay AID1159580.
